- TARGET_OR_SYSTEM: Trypanothione reductase (Trypanosoma cruzi)
- PROTOCOL_DETAILS: Inhibition of Trypanosoma cruzi trypanothione reductase
MEASURED_QUANTITY: Ki (nM)
Numbers only, in nM.

Lab note: CN(C)CCOc1cc2ccc(OC3=CC(=O)c4cc5ccccc5cc4C3=O)cc2oc1=O gave Ki of 2300

---

- TARGET_OR_SYSTEM: Trypanothione reductase (Trypanosoma cruzi, UniProt P28593)
- Sequence (P28593 whole entry): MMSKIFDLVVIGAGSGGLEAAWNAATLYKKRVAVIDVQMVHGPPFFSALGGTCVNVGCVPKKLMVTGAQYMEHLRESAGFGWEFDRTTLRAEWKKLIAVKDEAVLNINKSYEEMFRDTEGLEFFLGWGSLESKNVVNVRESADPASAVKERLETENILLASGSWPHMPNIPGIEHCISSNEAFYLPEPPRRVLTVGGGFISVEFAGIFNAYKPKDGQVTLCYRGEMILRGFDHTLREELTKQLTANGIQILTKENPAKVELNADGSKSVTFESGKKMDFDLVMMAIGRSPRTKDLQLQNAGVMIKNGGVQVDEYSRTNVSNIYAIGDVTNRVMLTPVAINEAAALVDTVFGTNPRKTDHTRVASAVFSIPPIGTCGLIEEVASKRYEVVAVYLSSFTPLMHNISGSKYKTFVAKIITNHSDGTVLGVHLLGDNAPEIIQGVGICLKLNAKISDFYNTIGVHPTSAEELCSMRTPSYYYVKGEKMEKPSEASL
- PROTOCOL_DETAILS: Inhibition of Trypanosoma cruzi trypanothione reductase assessed as reduction in NADPH consumption using varying levels of trypanothione disulfide as substrate by Lineweaver-Burk plot analysis
MEASURED_QUANTITY: pKi
Numbers only, as −log10 of the molar value.

The molecule identified as c1cc2cc(-c3ccc(C4(N5CCCC5)CCCCC4)s3)ccc2[nH]1 registered its pKi at 5.40
